Test system: CYP2C19
Test: dosing recommendation per CYP2C19 metabolizer subgroup as percentage of usual population dose (Equations 4-6)
Settings: human
From the text: Assuming the goal is to maintain the same AUC for all three subpopulations of patients, the following subpopulation dosing relationships hold: DPM=DEM*(AUCEM/AUCPM) OR DPM=DEM*R if R=(AUCEM/AUCPM) (Equation 2) DIM=DEM*(AUCEM/AUCIM) OR DIM=DEM*S if S=(AUCEM/AUCIM) (Equation 3) […]
experimental-endpoint: IM (%) dosing recommendation
Answer in %, number only, no unit symbol.

What value of IM (%) dosing recommendation on CYP2C19 does `CN[C@H]1CC[C@@H](c2ccc(Cl)c(Cl)c2)c2ccccc21` have?
90

What value of IM (%) dosing recommendation on CYP2C19 does `CN1CCN(C2=Nc3cc(Cl)ccc3Nc3ccccc32)CC1` have?
91

What value of IM (%) dosing recommendation on CYP2C19 does CN(C)CCC=C1c2ccccc2COc2ccccc21 [doxepin] have?
91

* * *

Record form. Attribute: UM (%) dosing recommendation. Fill in for each entry.
Test system: CYP2D6
Conditions: human
Answer in %, number only, no unit symbol.

Using the record for O=c1[nH]c2ccccc2n1C1CCN(CCCC(c2ccc(F)cc2)c2ccc(F)cc2)CC1 [pimozide] , report its UM (%) dosing recommendation.
105

Using the record for `COc1ccc2c(c1)N(C[C@H](C)CN(C)C)c1ccccc1S2` , report its UM (%) dosing recommendation.
100

Using the record for `CNCCCC12CCC(c3ccccc31)c1ccccc12` , report its UM (%) dosing recommendation.
173

Using the record for `CN(C)CCC=C1c2ccccc2CCc2ccccc21` , report its UM (%) dosing recommendation.
130

Using the record for `CN1CCN(CCCN2c3ccccc3Sc3ccccc32)CC1` , report its UM (%) dosing recommendation.
117

Using the record for CN1CCN2c3ccccc3Cc3ccccc3C2C1 (centres unmarked) , report its UM (%) dosing recommendation.
134

Using the record for CNCCC(Oc1ccc(C(F)(F)F)cc1)c1ccccc1 (centres unmarked) , report its UM (%) dosing recommendation.
120

Using the record for `CNCCC=C1c2ccccc2CCc2ccccc21` , report its UM (%) dosing recommendation.
152

* * *

Tested on: CYP2D6
Conditions: human
Record form. Attribute: 2 al (effect of 2 non-functional alleles). Fill in for each entry.

Using the record for `CNCCCC12CCC(c3ccccc31)c1ccccc12` , report its 2 al (effect of 2 non-functional alleles).
0.72

Using the record for CN1CCN2c3ccccc3Cc3ccccc3C2C1 (centres unmarked) , report its 2 al (effect of 2 non-functional alleles).
0.35

Using the record for CNCCC(Oc1ccc(C(F)(F)F)cc1)c1ccccc1 (centres unmarked) , report its 2 al (effect of 2 non-functional alleles).
0.27

Using the record for `O=c1n(CCCN2CCN(c3cccc(Cl)c3)CC2)nc2ccccn12` , report its 2 al (effect of 2 non-functional alleles).
0.31

Using the record for `CN[C@H]1CC[C@@H](c2ccc(Cl)c(Cl)c2)c2ccccc21` , report its 2 al (effect of 2 non-functional alleles).
0.01
